# TESTED ON: Phosphatidylinositol 4,5-bisphosphate 3-kinase catalytic subunit alpha isoform (Homo sapiens, UniProt P42336)
# Sequence (P42336 whole entry, canonical isoform): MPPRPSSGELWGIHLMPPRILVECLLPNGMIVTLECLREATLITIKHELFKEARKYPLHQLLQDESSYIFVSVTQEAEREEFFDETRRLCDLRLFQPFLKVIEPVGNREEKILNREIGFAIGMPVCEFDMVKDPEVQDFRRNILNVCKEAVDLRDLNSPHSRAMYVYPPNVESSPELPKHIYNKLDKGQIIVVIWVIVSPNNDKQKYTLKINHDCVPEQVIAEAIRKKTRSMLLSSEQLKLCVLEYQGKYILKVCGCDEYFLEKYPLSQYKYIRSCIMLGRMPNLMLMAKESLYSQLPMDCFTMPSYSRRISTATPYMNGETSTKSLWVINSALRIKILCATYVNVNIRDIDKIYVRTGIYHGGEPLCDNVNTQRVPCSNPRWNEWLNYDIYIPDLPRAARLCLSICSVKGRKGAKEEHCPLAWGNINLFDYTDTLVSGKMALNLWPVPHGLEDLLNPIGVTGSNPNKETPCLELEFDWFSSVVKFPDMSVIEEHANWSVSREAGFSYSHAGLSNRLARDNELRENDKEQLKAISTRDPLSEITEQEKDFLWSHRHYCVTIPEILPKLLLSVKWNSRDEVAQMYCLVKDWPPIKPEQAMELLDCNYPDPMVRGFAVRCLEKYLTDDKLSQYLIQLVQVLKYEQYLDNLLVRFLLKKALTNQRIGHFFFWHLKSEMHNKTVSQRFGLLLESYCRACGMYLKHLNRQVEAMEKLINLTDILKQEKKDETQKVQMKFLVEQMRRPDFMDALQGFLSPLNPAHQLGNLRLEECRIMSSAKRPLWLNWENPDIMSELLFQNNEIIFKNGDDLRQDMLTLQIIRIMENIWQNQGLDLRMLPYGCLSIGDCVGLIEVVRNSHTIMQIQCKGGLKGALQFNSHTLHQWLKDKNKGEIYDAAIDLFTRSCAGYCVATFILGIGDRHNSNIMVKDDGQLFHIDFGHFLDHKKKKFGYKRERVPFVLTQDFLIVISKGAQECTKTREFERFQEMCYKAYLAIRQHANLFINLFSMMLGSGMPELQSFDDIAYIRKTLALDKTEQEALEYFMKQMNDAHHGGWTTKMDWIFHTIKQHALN
# TEST: Inhibition of PI3Kalpha (unknown origin) using PIP2 as substrate measured after 1 hr in presence of ATP by ADP-glo luminescence assay
ENDPOINT: IC50 (nM)

Previously resolved entries follow.
smiles_repr=COc1cc(-c2cc3c(N[C@H]4CCN(C(=O)C5CC5)C4)ncnc3s2)cnc1OC endpoint=IC50 uom=nM val=154
smiles_repr=CCC(=O)N1CC[C@H](Nc2ncnc3sc(-c4cnc(OC)c(OC)c4)cc23)C1 endpoint=IC50 uom=nM val=310
smiles_repr=COc1cc(-c2cc3c(N[C@H]4CCN(C(=O)C(C)(C)C)C4)ncnc3s2)cnc1OC endpoint=IC50 uom=nM val=793
smiles_repr=CCC(=O)N1CC[C@H](Nc2ncnc3sc(-c4cncc(S(C)(=O)=O)c4)cc23)C1 endpoint=IC50 uom=nM val=1210
smiles_repr=CCC(=O)N1CC[C@H](Nc2ncnc3sc(-c4ccc(OC)c(OC)c4)cc23)C1 endpoint=IC50 uom=nM val=589

I: COc1cc(-c2cc3c(O[C@H]4CCN(C(=O)C5CC5)C4)ncnc3s2)cnc1OC
II: CCC(=O)N1CC[C@H](Nc2ncnc3c2CN(c2cnc(OC)c(C(F)(F)F)c2)CC3)C1
III: CCC(=O)N1CC[C@H](Nc2ncnc3sc(-c4ccc(OC)c(F)c4)cc23)C1
In: rank_up(items): orders items by reported IC50 in ascending numerical order. Give your ranking as a list of the labels in the requested order.
Out: II, I, III

###

# TEST: Cmax in ICR mouse at 30 mg/kg, po measured upto 24 hrs by LC-MS/MS analysis
# Type: ADME, organism-based
# Parameters: time < 24 hrs, dose 30 mg/kg, route po
# CONDITION NOTES: in vivo
ENDPOINT: Cmax (ng/mL)
Give just the numeric value; ng/mL need not be written.

In: Quick check: Cmax of CCC(=O)N1CC[C@H](Nc2ncnc3sc(-c4cnc(OC)c(OC)c4)cc23)C1 ?
Out: 372

###

# TEST: Half life in ICR mouse at 30 mg/kg, po measured upto 24 hrs by LC-MS/MS analysis
# Type: ADME, organism-based
# CONDITION NOTES: in vivo
ENDPOINT: half-life (min)
Give just the numeric value; min need not be written.

In: Quick check: half-life of CCC(=O)N1CC[C@H](Nc2ncnc3sc(-c4cnc(OC)c(OC)c4)cc23)C1 ?
Out: 53.4

###

# TESTED ON: Phosphatidylinositol 4,5-bisphosphate 3-kinase catalytic subunit delta isoform (Homo sapiens, UniProt O00329)
# Sequence (O00329 whole entry, canonical isoform): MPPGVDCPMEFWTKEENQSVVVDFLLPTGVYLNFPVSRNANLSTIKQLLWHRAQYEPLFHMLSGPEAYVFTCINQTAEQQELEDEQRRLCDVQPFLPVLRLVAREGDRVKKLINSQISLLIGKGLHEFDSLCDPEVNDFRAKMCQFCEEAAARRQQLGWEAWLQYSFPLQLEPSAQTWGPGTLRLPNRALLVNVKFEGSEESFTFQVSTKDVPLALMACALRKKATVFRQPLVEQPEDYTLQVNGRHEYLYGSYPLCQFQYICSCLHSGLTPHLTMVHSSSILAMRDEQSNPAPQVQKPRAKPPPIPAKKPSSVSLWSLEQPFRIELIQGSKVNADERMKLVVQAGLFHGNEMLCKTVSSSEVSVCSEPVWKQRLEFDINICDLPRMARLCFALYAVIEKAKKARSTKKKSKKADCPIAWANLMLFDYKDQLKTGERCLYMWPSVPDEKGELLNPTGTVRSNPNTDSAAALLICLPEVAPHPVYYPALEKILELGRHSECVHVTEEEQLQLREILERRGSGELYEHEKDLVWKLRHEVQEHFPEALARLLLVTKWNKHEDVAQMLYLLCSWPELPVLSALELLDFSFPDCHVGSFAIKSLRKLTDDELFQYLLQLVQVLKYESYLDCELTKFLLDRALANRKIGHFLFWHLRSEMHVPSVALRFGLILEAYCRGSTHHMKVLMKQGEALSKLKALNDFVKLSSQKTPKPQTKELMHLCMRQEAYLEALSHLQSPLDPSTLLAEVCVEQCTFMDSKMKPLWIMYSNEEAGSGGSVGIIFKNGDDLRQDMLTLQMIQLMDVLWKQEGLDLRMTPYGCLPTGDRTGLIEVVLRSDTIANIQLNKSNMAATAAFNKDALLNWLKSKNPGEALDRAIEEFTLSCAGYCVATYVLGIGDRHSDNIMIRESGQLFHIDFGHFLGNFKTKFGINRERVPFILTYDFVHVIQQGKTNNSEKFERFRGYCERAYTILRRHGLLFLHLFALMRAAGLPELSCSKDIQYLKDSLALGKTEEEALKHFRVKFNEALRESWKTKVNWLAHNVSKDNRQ
# TEST: Inhibition of PI3Kdelta (unknown origin) using PIP2 as substrate measured after 1 hr in presence of ATP by ADP-glo luminescence assay
ENDPOINT: IC50 (nM)

smiles_repr=CCC(=O)N1CC[C@H](Nc2ncnc3sc(-c4cccc(S(C)(=O)=O)c4)cc23)C1 endpoint=IC50 val=128
smiles_repr=COc1cc(-c2cc3c(N[C@H]4CCN(C(=O)C5CCCC5)C4)ncnc3s2)cnc1OC endpoint=IC50 val=8.5
smiles_repr=COc1cc(-c2cc3c(N[C@H]4CCN(C(=O)C(C)C)C4)ncnc3s2)cnc1OC endpoint=IC50 val=55
smiles_repr=COc1cc(-c2cc3c(O[C@H]4CCN(C(=O)C5CC5)C4)ncnc3s2)cnc1OC endpoint=IC50 val=10
smiles_repr=CCC(=O)N1CC[C@H](Oc2ncnc3sc(-c4cnc(OC)c(C#N)c4)cc23)C1 endpoint=IC50 val=156

I: CCC(=O)N1CC[C@H](Nc2ncnc3sc(-c4ccc(C#N)nc4)cc23)C1
II: CCC(=O)N1CC[C@H](Nc2ncnc3sc(-c4cnc(OC)c(C(F)(F)F)c4)cc23)C1
III: COc1cc(-c2cc3c(O[C@H]4CCN(C(=O)C5CCC5)C4)ncnc3s2)cnc1OC
In: rank_up(items): orders items by reported IC50 in ascending numerical order. Give your ranking as a list of the labels in the requested order.
Out: III, II, I
(III: 3.3 nM, II: 103 nM, I: 458 nM)

I: CCC(=O)N1CC[C@H](Oc2ncnc3sc(-c4cnc(OC)c(F)c4)cc23)C1
II: CCC(=O)N1CC[C@H](Nc2ncnc3sc(-c4ccc(OC)c(OC)c4)cc23)C1
In: Which has the higher IC50, I or II ? // output: label of the selected item
Out: I

Cited source: ChEMBL document CHEMBL5154925
